target: DNA-dependent protein kinase catalytic subunit (Homo sapiens, UniProt P78527); test: DNA-PK Enzyme Inhibitory Assay
Sequence (P78527 whole entry): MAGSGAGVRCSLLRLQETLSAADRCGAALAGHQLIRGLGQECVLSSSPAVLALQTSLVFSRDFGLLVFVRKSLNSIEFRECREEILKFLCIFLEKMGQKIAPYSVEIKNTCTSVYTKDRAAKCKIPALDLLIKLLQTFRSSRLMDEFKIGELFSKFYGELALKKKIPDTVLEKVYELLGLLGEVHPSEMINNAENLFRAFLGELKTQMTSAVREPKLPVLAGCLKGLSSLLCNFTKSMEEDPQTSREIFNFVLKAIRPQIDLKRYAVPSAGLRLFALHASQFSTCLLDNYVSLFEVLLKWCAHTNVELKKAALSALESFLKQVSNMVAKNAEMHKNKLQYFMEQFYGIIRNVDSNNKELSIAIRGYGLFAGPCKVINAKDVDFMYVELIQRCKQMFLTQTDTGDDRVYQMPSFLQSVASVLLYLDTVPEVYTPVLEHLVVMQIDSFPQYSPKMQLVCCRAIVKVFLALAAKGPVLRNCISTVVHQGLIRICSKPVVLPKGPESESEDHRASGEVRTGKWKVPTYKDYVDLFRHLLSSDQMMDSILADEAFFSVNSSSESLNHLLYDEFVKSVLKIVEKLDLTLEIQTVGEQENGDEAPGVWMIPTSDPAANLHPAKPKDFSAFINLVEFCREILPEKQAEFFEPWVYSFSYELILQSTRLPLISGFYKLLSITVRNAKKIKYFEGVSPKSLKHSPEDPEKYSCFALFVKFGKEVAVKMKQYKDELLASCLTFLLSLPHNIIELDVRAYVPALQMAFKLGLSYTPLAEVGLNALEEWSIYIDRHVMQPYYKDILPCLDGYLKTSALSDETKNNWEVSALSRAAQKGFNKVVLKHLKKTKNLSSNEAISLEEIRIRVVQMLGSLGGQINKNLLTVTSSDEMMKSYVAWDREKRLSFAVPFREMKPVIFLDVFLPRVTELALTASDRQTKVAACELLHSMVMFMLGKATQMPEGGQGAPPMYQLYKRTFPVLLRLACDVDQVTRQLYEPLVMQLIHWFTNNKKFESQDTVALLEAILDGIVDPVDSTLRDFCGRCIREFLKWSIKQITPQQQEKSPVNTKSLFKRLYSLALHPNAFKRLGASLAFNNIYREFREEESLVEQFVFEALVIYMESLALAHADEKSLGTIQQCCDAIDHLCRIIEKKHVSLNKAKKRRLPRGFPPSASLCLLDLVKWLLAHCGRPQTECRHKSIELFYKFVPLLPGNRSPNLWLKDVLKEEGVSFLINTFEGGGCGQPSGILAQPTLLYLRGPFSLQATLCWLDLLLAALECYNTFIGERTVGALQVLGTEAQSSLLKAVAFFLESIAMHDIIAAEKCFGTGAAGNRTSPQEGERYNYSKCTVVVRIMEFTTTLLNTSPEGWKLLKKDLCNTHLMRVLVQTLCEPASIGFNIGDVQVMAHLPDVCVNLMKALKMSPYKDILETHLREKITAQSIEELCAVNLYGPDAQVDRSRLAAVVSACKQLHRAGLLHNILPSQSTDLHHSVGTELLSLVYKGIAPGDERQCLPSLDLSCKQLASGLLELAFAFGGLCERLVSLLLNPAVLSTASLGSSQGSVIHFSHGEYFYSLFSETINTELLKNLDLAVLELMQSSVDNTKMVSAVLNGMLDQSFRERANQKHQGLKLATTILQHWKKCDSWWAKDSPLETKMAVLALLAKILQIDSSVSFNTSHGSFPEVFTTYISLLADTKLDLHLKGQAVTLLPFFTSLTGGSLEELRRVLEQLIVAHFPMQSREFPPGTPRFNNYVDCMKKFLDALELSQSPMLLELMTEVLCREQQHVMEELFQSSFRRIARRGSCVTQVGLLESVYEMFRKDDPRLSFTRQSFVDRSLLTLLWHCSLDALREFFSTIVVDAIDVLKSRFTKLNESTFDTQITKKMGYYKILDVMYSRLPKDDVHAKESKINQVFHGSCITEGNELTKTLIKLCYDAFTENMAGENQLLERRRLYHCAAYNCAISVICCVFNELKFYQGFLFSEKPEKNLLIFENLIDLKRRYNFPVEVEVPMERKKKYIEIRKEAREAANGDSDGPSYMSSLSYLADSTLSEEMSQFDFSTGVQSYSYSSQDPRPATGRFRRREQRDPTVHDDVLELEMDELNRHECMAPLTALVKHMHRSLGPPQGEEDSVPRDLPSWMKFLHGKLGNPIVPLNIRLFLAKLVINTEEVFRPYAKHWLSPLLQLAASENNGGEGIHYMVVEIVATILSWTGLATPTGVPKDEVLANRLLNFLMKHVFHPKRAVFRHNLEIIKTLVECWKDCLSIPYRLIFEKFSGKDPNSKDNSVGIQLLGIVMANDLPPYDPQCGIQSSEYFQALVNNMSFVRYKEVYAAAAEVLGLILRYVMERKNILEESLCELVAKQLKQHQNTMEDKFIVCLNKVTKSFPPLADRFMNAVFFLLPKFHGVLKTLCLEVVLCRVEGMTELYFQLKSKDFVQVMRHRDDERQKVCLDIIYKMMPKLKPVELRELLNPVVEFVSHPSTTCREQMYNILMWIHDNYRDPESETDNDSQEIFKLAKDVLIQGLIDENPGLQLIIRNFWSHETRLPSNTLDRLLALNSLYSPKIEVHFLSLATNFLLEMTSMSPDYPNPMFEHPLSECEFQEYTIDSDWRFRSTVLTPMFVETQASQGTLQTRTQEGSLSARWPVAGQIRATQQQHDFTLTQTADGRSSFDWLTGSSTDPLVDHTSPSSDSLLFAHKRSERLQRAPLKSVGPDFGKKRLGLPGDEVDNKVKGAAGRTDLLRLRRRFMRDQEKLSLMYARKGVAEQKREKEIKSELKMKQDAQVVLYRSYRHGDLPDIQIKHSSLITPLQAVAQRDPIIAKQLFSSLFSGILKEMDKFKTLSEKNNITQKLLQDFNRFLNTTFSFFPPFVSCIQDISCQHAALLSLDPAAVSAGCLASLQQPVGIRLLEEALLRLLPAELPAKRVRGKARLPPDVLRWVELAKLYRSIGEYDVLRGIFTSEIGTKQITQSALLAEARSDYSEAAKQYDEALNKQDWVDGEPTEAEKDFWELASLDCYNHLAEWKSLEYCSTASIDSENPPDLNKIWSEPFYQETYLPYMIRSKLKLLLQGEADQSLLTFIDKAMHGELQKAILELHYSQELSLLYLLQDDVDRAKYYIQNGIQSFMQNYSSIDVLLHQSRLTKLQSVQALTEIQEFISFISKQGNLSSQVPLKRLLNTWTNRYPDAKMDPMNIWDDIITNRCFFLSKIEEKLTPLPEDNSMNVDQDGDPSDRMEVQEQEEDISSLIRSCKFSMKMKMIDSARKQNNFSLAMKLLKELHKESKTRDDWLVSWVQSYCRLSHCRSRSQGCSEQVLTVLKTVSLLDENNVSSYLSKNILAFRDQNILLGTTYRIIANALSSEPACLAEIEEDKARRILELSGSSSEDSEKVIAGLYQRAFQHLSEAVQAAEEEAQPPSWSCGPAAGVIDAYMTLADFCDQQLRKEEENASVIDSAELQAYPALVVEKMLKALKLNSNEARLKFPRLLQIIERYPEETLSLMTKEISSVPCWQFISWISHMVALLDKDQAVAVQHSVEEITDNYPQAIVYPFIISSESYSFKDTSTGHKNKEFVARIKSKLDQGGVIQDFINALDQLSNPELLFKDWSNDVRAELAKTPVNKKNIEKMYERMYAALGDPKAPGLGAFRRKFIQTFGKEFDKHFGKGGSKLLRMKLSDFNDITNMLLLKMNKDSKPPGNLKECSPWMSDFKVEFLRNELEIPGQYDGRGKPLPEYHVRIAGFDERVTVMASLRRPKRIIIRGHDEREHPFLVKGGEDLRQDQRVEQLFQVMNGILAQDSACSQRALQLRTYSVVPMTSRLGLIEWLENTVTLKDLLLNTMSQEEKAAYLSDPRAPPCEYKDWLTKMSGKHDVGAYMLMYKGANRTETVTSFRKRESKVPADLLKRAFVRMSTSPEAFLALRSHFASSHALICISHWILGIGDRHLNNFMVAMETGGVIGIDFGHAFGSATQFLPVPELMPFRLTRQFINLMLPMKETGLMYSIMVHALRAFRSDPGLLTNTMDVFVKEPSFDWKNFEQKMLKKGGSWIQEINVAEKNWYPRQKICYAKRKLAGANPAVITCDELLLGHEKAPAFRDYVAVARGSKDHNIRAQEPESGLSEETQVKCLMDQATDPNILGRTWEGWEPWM
Measured log10 of IC50, listed per entry.
QUANTITY_MEASURED: log10 of IC50 (log10 of the value in µM)

>>> df
                                   compound  result_value
0  Cc1ccc(CNC(=O)COc2ccc3c(=O)nc(N4CCOCC4)oc3c2C)cc1          1.30
1  Cc1noc(NS(=O)(=O)c2ccc(NC(=O)COc3ccc4c(=O)nc(N5CCOCC5)oc4c3C)cc2)c1C          0.70
2  Cc1c(OCC(=O)Nc2ccc(S(=O)(=O)NC(=N)N)cc2)ccc2c(=O)nc(N3CCOCC3)oc12          1.40
3  CCC(C)C(NC(=O)COc1ccc2c(=O)nc(N3CCOCC3)oc2c1C)C(=O)O (stereo unspecified)          1.90
4  Cc1c(OCC(=O)NCc2ccc(O)cc2)ccc2c(=O)nc(N3CCOCC3)oc12          0.40
5  Cc1c(OCC(=O)N[C@@H](Cc2ccccc2)C(=O)O)ccc2c(=O)nc(N3CCOCC3)oc12          1.54

Recorded values, source BindingDB's records for doi:10.7270/Q2930S2V.
